Target: human RORγt ligand binding domain (RORγt LBD) (Homo sapiens, UniProt P51449)
Construct: His-tag (N); TurboTEV protease cleavage site (ENLYFQG) (N); made in house; host or cells: E. coli (pHIS1, modified pET vector)
Sequence (P51449 258-518): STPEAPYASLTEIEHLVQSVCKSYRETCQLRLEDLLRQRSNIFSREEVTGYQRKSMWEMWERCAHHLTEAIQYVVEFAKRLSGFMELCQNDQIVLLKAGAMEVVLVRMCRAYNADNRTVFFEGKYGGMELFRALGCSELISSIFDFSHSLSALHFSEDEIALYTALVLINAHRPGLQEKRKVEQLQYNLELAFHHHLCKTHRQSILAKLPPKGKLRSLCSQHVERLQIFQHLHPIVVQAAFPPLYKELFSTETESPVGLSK
Assay: ThermoFluor® Assay (RORγt thermal shift binding)
Conditions: 0.065 mg/mL RORγt, 60 µM 1,8-ANS, pH 7.0; estimated from concentration response curves
pKd: −log10 of the molar value.
OBSERVED_PROPERTY: pKd

Example cases with answers are listed next.
1. COc1nc2ccc(C(O)C3CCN(C(C)=O)CC3)cc2c(Cl)c1Cc1ccc(C(F)(F)F)cc1 (centres unmarked) = 6.66
2. Cc1ccc(C(O)c2ccc3nc(N4CCC4)c(Cc4ccc(C(F)(F)F)cc4)c(Cl)c3c2)c(C)n1 (centres unmarked) [Example 23a] = 6.85
3. COc1nc2ccc(C(O)c3cnnn3C)cc2c(Cl)c1Cc1ccc(C(F)(F)F)cc1 (centres unmarked) [Example 17a] = 7.19

[1] COc1nc2ccc(C(O)c3c(C)noc3C)cc2c(Cl)c1Cc1ccc(C(F)(F)F)cc1 (centres unmarked) [Example 20a]
[2] Cn1cncc1C(O)c1ccc2nc(Cl)c(-c3ccccc3Cl)c(Cl)c2c1 (centres unmarked)
[3] COc1nc2ccc(C(O)c3cnc(C)n3C)cc2c(Cl)c1Cc1ccc(F)cc1 (centres unmarked)
Q: Write the entries in order, lowest recorded pKd first. Provide the ranking by listing each label in its place in the requested order.
A: 2, 3, 1

[I] COc1nc2ccc(C(O)c3cnnn3C)cc2c(Cl)c1Cc1ccc(C(F)(F)F)cc1 (single isomer, unassigned) [Example 17b]
[II] COc1nc2ccc(C(O)c3cnc(C)n3C)cc2c(Cl)c1Cc1ccc(C(F)(F)F)cc1 (single isomer, unassigned) [Example 15c]
Q: Looking only at measured pKd, which entry is lower, I or II ? # respond with the chosen item's label
A: I
(I: 7.09, II: 7.40)

---

target: human RORγt ligand binding domain (RORγt LBD) (Homo sapiens); construct: His-tag (N); TurboTEV protease cleavage site (ENLYFQG) (N); assay: ThermoFluor® Assay (RORγt thermal shift binding); settings: 0.065 mg/mL RORγt, 60 µM 1,8-ANS, pH 7.0; estimated from concentration response curves
OBSERVED_PROPERTY: Kd (nM)

1) Cc1ncc(C(O)c2ccc3nc(N4CCC4)c(Cc4ccc(C(F)(F)F)cc4)c(Cl)c3c2)n1C (single isomer, unassigned) [Example 22b] = 55
2) Cc1ncc(C(O)c2ccc3nc(N4CCC4)c(Cc4ccc(-n5cccn5)cc4)c(Cl)c3c2)n1C (stereo not drawn) [Example 21a] = 200
3) OC(c1ccncc1)c1ccc2nc(Cl)c(Cc3ccccc3)c(Cl)c2c1 (stereo not drawn) = 230

[I] COc1nc2ccc(C(O)c3cnc(C)n3C)cc2c(Cl)c1Cc1ccc(C(F)(F)F)cc1 (single isomer, unassigned) [Example 15b]
[II] COc1nc2ccc(C(O)c3cncn3C)cc2c(Cl)c1Cc1ccc(C(F)(F)F)cc1 (stereo not drawn) [Example 18a]
[III] Cn1cncc1C(O)c1ccc2nc(Cl)c(-c3ccccc3)c(Cl)c2c1 (stereo not drawn)
[IV] COc1nc2ccc(C(O)c3ccc(C)nc3C)cc2c(Cl)c1Cc1ccc(C(F)(F)F)cc1 (single isomer, unassigned) [Example 14c]
Q: Reorder: Kd, max to min. // ordering of labels required in reply
A: III, II, IV, I
(III: 1600 nM, II: 240 nM, IV: 100 nM, I: 69 nM)

[A] COc1nc2ccc(C(O)c3cnc(C)n3C)cc2c(Cl)c1Cc1ccc(C(F)(F)F)cc1 (stereo not drawn) [Example 15a]
[B] COc1nc2ccc(C(O)c3cncn3C)cc2c(Cl)c1Cc1ccc(C(F)(F)F)cc1 (single isomer, unassigned) [Example 18c]
Q: In the pair A and B , the larger recorded Kd belongs to which? Write down the label of the entry you select.
A: B
(B: 260 nM, A: 74 nM)
